Known growth inhibition of a selection of compounds
# Test details: NCI Yeast Anticancer Drug Screen. Data for the mlh1 rad18 strain (AID 175)
# Assay setup: S. cerevisiae mlh1 rad18 strain growth inhibition; at 50.0 µM; stronger effect = higher value
The panel holds about 79,000 compounds, 15% with a hit somewhere; the sample as a whole holds those more often. The source made the active and inactive calls. Rule as the data show it: active = growth inhibition above about 70%; inactive = the rest. Where a SMILES comes first, the peptide text is derived from it. [ ]: non-standard residue; d: D form. The star is where a group is joined. ξ: configuration not given here. Cbz = O=C(OCc1ccccc1)*; ξK = NCCCCC(N)C(=O)O
Assay readout: growth inhibition

[
  {
    "Compound": "O=C1c2ccccc2CC12Cc1ccccc1C2",
    "Assay readout": "growth inhibition",
    "Result": "0.15% (inactive)"
  },
  {
    "Compound": "NCCCCC(NC(=O)OCc1ccccc1)C(=O)NCC(N)=O (stereo not drawn) (Cbz-[ξK]-Gly-NH2)",
    "Assay readout": "growth inhibition",
    "Result": "-30.2% (inactive)"
  },
  {
    "Compound": "CCN(CC)CCOC(=O)c1c(C)c(C)cc(C)c1C",
    "Assay readout": "growth inhibition",
    "Result": "-7.7% (inactive)"
  },
  {
    "Compound": "O=C(O)c1ccccc1/C=N/NC1=NCCCCN1",
    "Assay readout": "growth inhibition",
    "Result": "-33.1% (inactive)"
  },
  {
    "Compound": "Nc1ccccc1C(=O)/C=C/c1c(O)ccc2ccccc12",
    "Assay readout": "growth inhibition",
    "Result": "34.3% (inactive)"
  },
  {
    "Compound": "ClC1CC2CC1C1CCCC21 (stereo not drawn)",
    "Assay readout": "growth inhibition",
    "Result": "-7.4% (inactive)"
  },
  {
    "Compound": "O=C1OC(c2ccc(Cl)c3ccccc23)c2ccccc21 (stereo not drawn)",
    "Assay readout": "growth inhibition",
    "Result": "43.3% (inactive)"
  },
  {
    "Compound": "Cc1ccccc1NC(=O)Nc1ccccc1C",
    "Assay readout": "growth inhibition",
    "Result": "-11.9% (inactive)"
  },
  {
    "Compound": "C1=C(N2CCOCC2)/C(=C2\\SC(=Nc3ccccc3)C(=Nc3ccccc3)N2c2ccccc2)CC1",
    "Assay readout": "growth inhibition",
    "Result": "-28.6% (inactive)"
  },
  {
    "Compound": "COc1ccc(S(=O)(=O)N/N=C/c2cc(I)cc([N+](=O)[O-])c2O)cc1",
    "Assay readout": "growth inhibition",
    "Result": "2.5% (inactive)"
  },
  {
    "Compound": "CCOC(=O)c1ccc(C(=O)OCC)n1-c1cc2cc(c1)CSCc1cc(cc(-n3c(C(=O)OCC)ccc3C(=O)OCC)c1)CSC2",
    "Assay readout": "growth inhibition",
    "Result": "-5.15% (inactive)"
  },
  {
    "Compound": "C(=C\\c1cccc2ccccc12)/c1ccc(-c2ccccc2)cc1",
    "Assay readout": "growth inhibition",
    "Result": "5.75% (inactive)"
  },
  {
    "Compound": "CC(C)C(C(=O)O)N1C(=O)c2ccccc2C1=O (stereo not drawn)",
    "Assay readout": "growth inhibition",
    "Result": "-4.15% (inactive)"
  },
  {
    "Compound": "NS(=O)(=O)c1ccc(N2C(=O)C3C(C2=O)C2(Cl)C(Cl)=C(Cl)C3(Cl)C2(Cl)Cl)cc1 (stereo not drawn)",
    "Assay readout": "growth inhibition",
    "Result": "20.6% (inactive)"
  },
  {
    "Compound": "COc1cc(C(=O)C/C(CCCC(=O)Nc2ccccc2[N+](=O)[O-])=N/NC(=O)c2cc3ccccc3cc2O)ccc1O",
    "Assay readout": "growth inhibition",
    "Result": "7.85% (inactive)"
  },
  {
    "Compound": "COc1ccc(C2(C(OC)OC)NC(=O)N(Cc3ccccc3)C2=O)cc1 (stereo not drawn)",
    "Assay readout": "growth inhibition",
    "Result": "-10.3% (inactive)"
  },
  {
    "Compound": "CCCCCCC(C)C(CC)(C(=O)OCC)C(=O)OCC (stereo not drawn)",
    "Assay readout": "growth inhibition",
    "Result": "7.65% (inactive)"
  },
  {
    "Compound": "COc1cccc(/C=N/[N-]C(N)=O)c1[O-].[OH3+].[Pd+2]",
    "Assay readout": "growth inhibition",
    "Result": "21.6% (inactive)"
  },
  {
    "Compound": "CCCCCCC1(C)OCC(c2ccccc2)O1 (stereo not drawn)",
    "Assay readout": "growth inhibition",
    "Result": "9.65% (inactive)"
  },
  {
    "Compound": "O=C(O)CC(=O)c1ccccc1",
    "Assay readout": "growth inhibition",
    "Result": "-15.8% (inactive)"
  },
  {
    "Compound": "c1ccc2cc(N3CCOCC3)ccc2c1",
    "Assay readout": "growth inhibition",
    "Result": "2.3% (inactive)"
  },
  {
    "Compound": "C=C(N1CCCCC1)N1CCCCC1",
    "Assay readout": "growth inhibition",
    "Result": "-11.4% (inactive)"
  },
  {
    "Compound": "CC1(C)OCC(C2OC3OC(C)(C)OC3C2c2ccccc2)O1 (stereo not drawn)",
    "Assay readout": "growth inhibition",
    "Result": "2.2% (inactive)"
  }
]
